Tested on: SF-539 CNS
testDescription: NCI-60 one-dose screen, 48 h
reportedConditions: 10 µM unless noted
Method: Cells are grown in 96 well plates and exposed to the test compound for 48 hours. Compounds are tested at a single concentration, which is 10^-5 M for most compounds. The reported endpoint is percent growth (GI% or GIPRCNT), where numbers from 0 - 100% represent growth inhibition, and numbers from -100% - 0 represent cell death. For example, a value of 40 represents 60% growth inhibition. A value of 0 means no net growth occurred over the course of the experiment. […]
This is part of a sample that, as a whole, favours compounds with a hit. Of some 83,000 tested, about 20% had one in any assay. The source made the active and inactive calls. The calls were made as follows: active = growth percent below 10; inactive = the rest.
Use one of these outcomes when replying: 1 for active, 0 for inactive

COc1cccc(NC(=O)Nc2ccc(Nc3ncnc4sc5c(c34)CCN(C(=O)CCl)C5)cc2)c1 = 0

Please indicate how the test categorized O=C1OCC2=C1C(c1cccc(F)c1)c1cc3c(cc1N2CCO)OCCO3 (stereo not given) . 1
